Assay: Solubility in buffers
Assay type: physicochemical
Conditions: simulated gastric fluid; gastric buffer (pH 2.0); read-out: solubility
REPORTED PROPERTY: solubility (µg/mL)
One number for each entry, in µg/mL.

Exam item: Would you mind telling me what solubility value was observed for CCn1c(=O)c(-c2cc(NC(=O)Nc3ccccc3)c(F)cc2Br)cc2cnc(NC)cc21 ?
Marked response: 178

----------
Test: Observed clinical PK after single and multiple doses
Assay type: in vivo
Settings: human, plasma, oral; SD administration, healthy participants
For each entry below, report its half-life value.

| MOLECULE SMILES | half-life |
| --- | --- |
| CCn1c(=O)c(-c2cc(NC(=O)Nc3ccccc3)c(F)cc2Br)cc2cnc(NC)cc21 | ~14 h |

Next:
Exam item: Would you mind telling me what half-life value was observed for CCn1c(=O)c(-c2cc(NC(=O)Nc3ccccc3)c(F)cc2Br)cc2cnc(N)cc21 ?
Marked response: ~17 h

----------
Assay: Solubility in buffers
Format: physicochemical
Settings: fassgf or other biorelevant; intestinal buffer (pH 6.5); read-out: solubility
REPORTED PROPERTY: solubility
Note: state the figure and append the unit.

Exam item: Would you mind telling me what solubility value was observed for CCn1c(=O)c(-c2cc(NC(=O)Nc3ccccc3)c(F)cc2Br)cc2cnc(NC)cc21 ?
Marked response: 123 µg/mL

----------
Assay: Unbound fraction / plasma protein binding
Assay type: in vitro ADME, human
Conditions: human, plasma, oral, 50 mg, healthy participants and participants with hepatic impairment; clinical samples; read-out: mean unbound fraction fu %
REPORTED PROPERTY: fraction unbound

Exam item: Would you mind telling me what fraction unbound value was observed for CCn1c(=O)c(-c2cc(NC(=O)Nc3ccccc3)c(F)cc2Br)cc2cnc(NC)cc21 ?
Marked response: ≤ 0.006
